Target: recombinant soluble trimeric 2009 H1 HA (A/California/04/2009, wild type) (Influenza A virus A/California/04/2009 (H1N1))
Assay: ELISA, supernate
recorded.endpoint: OD (OD)
Response body: numeric value in OD, unit text excluded.

Sample answers from the record:
>>> obs_value("mAb 10E15 (antibody, V domains shown) VH: EVQLLESGGGVVQPGRSLRLSCAASGFTFRTYGMHWVRQAPGKGLEWVAVISHDGNLKYYGGSVKGRFTISRDNSKNALYLQMNSLRVDDTALYYCARGIGITDAFDIRGQGTMVVVS VL: QSVLTQPPSVSAAPGQKVTISCSGSSSNIGKNYVSWYQQLPGTAPKLLIYDNDKRPSGIPDRFSGSKSGTSATLGITGLQTGDEADYHCGAWDSSLNGGVFGGGTKVTVLG")
0.996
>>> obs_value("mAb 25J3 (antibody, V domains shown) VH: QVQLQESGPGLVRPSETLSLTCNVSGDSINDYYWSWIRQPPGKGLEWIGYIYYSGSTNYNPSLNSRVTISVEMSKNQFSLILNSVTAADTAVYYCARVDYDSGGSFDPWGQGTLVTVS VL: QSVLTQPPSVSGAPGQRVTISCTGSSSNIGAGYDVHWYQQLPGTAPKLLIYGNSNRPSGVPDRFSGSKSGTSASLAITGLQAEDEADFYCQSYDSRLSGYVFGTGTKVTVLG")
0.071

Field: next binder
OD reading for mAb 2K11 (antibody, V domains shown) VH: EVQLVESGGGLVQPGGSLRLSCVASTFSLINYWMTWVRQAPGKGLEWVANIKQDGFEKYYVDSVKGRFTISRDNAKNSLYLQMNSLRVEDTAVYYCARQGSYADTYFYHYGMDVWGQGTTVTVS VL: QSALTQPPSVSGAPGQRVTISCTGSSSNIGAGYDAYWYQQLPGTAPKLLIYGNSNRLSGVPDRFSASKSGTSASLAITGLQAEDEADYYCQSYDSSLSIFGGGTKLTVLR : 1.28
